Recorded values, source ChEMBL document CHEMBL5291721.

Record set of AC50 for target or system B2 bradykinin receptor (Homo sapiens). Further: assay procedure not described here.
MEASURED PROPERTY: AC50

In [3]: df
Out[3]:
                                   compound   result
0  CN(CCCN1c2ccccc2CCc2ccccc21)CC(=O)c1ccc(Cl)cc1 [LOFEPRAMINE]  > 10 µM
1  CCCCOc1cc(C(=O)NCCN(CC)CC)c2ccccc2n1 [DIBUCAINE]  > 30 µM
2  C[C@H]1C[C@@H]2[C@H]([C@@H](O)C[C@@]3(C)[C@H]2CC[C@]3(O)C(=O)CO)[C@@]2(C)C=CC(=O)C=C12 [METHYLPREDNISOLONE]  > 10 µM
3  CC(C)c1c(C(=O)Nc2ccccc2)c(-c2ccccc2)c(-c2ccc(F)cc2)n1CC[C@@H](O)C[C@@H](O)CC(=O)O [ATORVASTATIN]  > 30 µM
4  OCCN1CCN(CCCN2c3ccccc3C=Cc3ccccc32)CC1 [OPIPRAMOL]  > 30 µM
5  NC(CO)C(=O)NNCc1ccc(O)c(O)c1O (stereo not drawn) [BENSERAZIDE]  > 30 µM
6  NS(=O)(=O)c1cc2c(cc1Cl)NCNS2(=O)=O [HYDROCHLOROTHIAZIDE]  > 30 µM
7  Nc1ncnc2c1ncn2[C@@H]1O[C@H](COP(=O)(O)O)[C@@H](O)[C@H]1O [ADENOSINE PHOSPHATE]  > 30 µM

###

# SYSTEM TESTED: 5-hydroxytryptamine receptor 1A (Homo sapiens); further: assay procedure not described here
# Sequence (P08908 whole entry): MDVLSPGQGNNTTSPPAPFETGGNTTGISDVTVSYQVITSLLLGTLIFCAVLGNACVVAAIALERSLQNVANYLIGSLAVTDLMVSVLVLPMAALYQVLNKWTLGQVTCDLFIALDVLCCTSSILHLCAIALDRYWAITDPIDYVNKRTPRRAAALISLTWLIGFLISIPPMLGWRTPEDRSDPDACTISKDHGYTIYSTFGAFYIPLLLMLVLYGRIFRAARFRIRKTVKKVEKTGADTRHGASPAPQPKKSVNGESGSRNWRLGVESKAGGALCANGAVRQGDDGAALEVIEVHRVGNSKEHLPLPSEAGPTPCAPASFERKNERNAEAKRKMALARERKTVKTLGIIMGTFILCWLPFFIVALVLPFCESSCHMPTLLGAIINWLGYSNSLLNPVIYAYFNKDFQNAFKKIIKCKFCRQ
# Format: functional, cell-based
MEASURED PROPERTY: AC50

                                   molecule                             system_tested  measured_property   result
0  O=C(O)CCn1c2c(c3ccccc31)C[C@H](NS(=O)(=O)c1ccc(F)cc1)CC2  5-hydroxytryptamine receptor 1A (Homo sapiens)               AC50  > 10 µM
1  O=C1CCC(N2C(=O)c3ccccc3C2=O)C(=O)N1 (centres undefined) [THALIDOMIDE]  5-hydroxytryptamine receptor 1A (Homo sapiens)               AC50  > 10 µM
2  COc1ccc2c(c1)c(CC(=O)OCC(=O)O)c(C)n2C(=O)c1ccc(Cl)cc1  5-hydroxytryptamine receptor 1A (Homo sapiens)               AC50    25 µM
3  NC(=O)c1ncn([C@@H]2O[C@H](CO)[C@@H](O)[C@H]2O)c1O  5-hydroxytryptamine receptor 1A (Homo sapiens)               AC50  > 30 µM
4  CCN(CC)CCNC(=O)c1cc(Cl)c(N)cc1OC [METOCLOPRAMIDE]  5-hydroxytryptamine receptor 1A (Homo sapiens)               AC50  > 10 µM
5  C1=Cc2cccc(OCC3CNCCO3)c2C1 (centres undefined)  5-hydroxytryptamine receptor 1A (Homo sapiens)               AC50  > 30 µM
6  CCC[C@@H]1C[C@@H](C(=O)N[C@@H]([C@H]2O[C@H](SC)[C@H](O)[C@@H](O)[C@H]2O)[C@H](C)Cl)N(C)C1  5-hydroxytryptamine receptor 1A (Homo sapiens)               AC50  > 10 µM
7  CCCC(=O)N1CCCN(c2nc(N)c3cc(OC)c(OC)cc3n2)CC1  5-hydroxytryptamine receptor 1A (Homo sapiens)               AC50  > 30 µM
8  COC(=O)C1=C(C)NC(C)=C(C(=O)OC)C1c1ccccc1[N+](=O)[O-]  5-hydroxytryptamine receptor 1A (Homo sapiens)               AC50  > 10 µM
